B1: library; a variant is named by its letters at N, in order (parent)
chain: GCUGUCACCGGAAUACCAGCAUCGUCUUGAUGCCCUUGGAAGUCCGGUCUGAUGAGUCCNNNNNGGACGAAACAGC

variants of: B1; assay: FACS-Seq fitted mean relative fluorescence mCherry/BFP with ligand (log10 relative fluorescence); ligand concentration (+) FACS-Seq: 1 mM; higher = higher reporter protein expression; conditions: HEK293T, ligand present: yes
measured-attribute: FACS-Seq fitted mean (log10)
// return just the number, without any unit appended

[[record]]
variant_key = "UUGCU"
reported_value = 0.922

[[record]]
variant_key = "GAUGC"
reported_value = 1.05

[[record]]
variant_key = "CCGUC"
reported_value = 0.413

[[record]]
variant_key = "CUCCU"
reported_value = 0.682

[[record]]
variant_key = "GCACU"
reported_value = 1

[[record]]
variant_key = "UUACU"
reported_value = 1.01

[[record]]
variant_key = "CCAUU"
reported_value = 0.688

[[record]]
variant_key = "UAGCU"
reported_value = 1.14

[[record]]
variant_key = "AUGCG"
reported_value = 0.986

[[record]]
variant_key = "UCCAA"
reported_value = 0.912


For the variant `GAAUU` , give its measured FACS-Seq fitted mean (log10) value.
0.431

For the variant `AGGCA` , give its measured FACS-Seq fitted mean (log10) value.
0.896

For the variant `UGACU` , give its measured FACS-Seq fitted mean (log10) value.
1.22

For the variant `AACGC` , give its measured FACS-Seq fitted mean (log10) value.
0.922
